From: PubChem BioAssay (NCI)

I'd appreciate it if you could supply growth values for the items below.
test system: SK-MEL-2 melanoma; test: NCI-60 one-dose screen, 48 h (100 = growth as untreated, 0 = no growth, -100 = all killed); conditions: 10 µM
The panel holds about 83,000 compounds, 20% with a hit somewhere; the sample as a whole holds those more often. Calls of active or inactive are those of the source. The calls were made as follows: active = growth percent below 10; inactive = the rest.

Entry under test: COc1ccc2c(c1OC)C(=O)O[C@@H]2[C@H]1c2c(c(C#CC#Cc3ccc(F)c(F)c3)c3c(c2OC)OCO3)CCN1C . Its growth was 91.8% (inactive)

Entry under test: ClCc1ccc(-c2ccc(Cn3cnc4nc(Cl)nc(Cl)c43)cc2)cc1 . Its growth was 65.8% (inactive)

Entry under test: CCCCCCCC(=O)SCC/C=C/[C@@H]1CC(=O)NCc2cccc(n2)C2=N[C@@](C)(CS2)C(=O)N[C@@H](C(C)C)C(=O)N1 . Its growth was 18.1% (inactive)

Entry under test: N#Cc1c(NC(=O)c2ccco2)[n+]([O-])c2cc(F)c(F)cc2[n+]1[O-] . Its growth was 97.2% (inactive)

Entry under test: Cc1ccc(-c2nc3ccc(Cl)cn3c2NC2CCCCC2)o1 . Its growth was 88.9% (inactive)

Entry under test: NN1C(=O)CSC1=S . Its growth was 95% (inactive)

Entry under test: O=C(Cc1ccccc1)Nc1nnc(NC2CCN(c3nnc(NC(=O)Cc4ccccc4)s3)CC2)s1 . Its growth was 122% (inactive)

Entry under test: CC1(O)CCC(Nc2cc(-c3ccc(C(F)(F)F)cc3)c(C#N)c3nc4ccccc4n23)CC1 (stereo not given) . Its growth was 73.4% (inactive)

Entry under test: C=C1C(=O)O[C@H]2[C@H]1CC/C(Cn1cc(-c3cc(C)c(C)cc3C)nn1)=C\CC[C@@]1(C)O[C@@H]21 . Its growth was -12.9% (active)

Entry under test: COc1ccc2c(CCCc3ccc(Cl)cc3Cl)c3[n+](cc2c1OC)CCc1cc2c(cc1-3)OCO2 . Its growth was -22.8% (active)

Entry under test: NC1=Nc2ccccc2N(O)N1 . Its growth was 89.2% (inactive)

Entry under test: O=c1[nH]c(N2CCOCC2)nc2scc(-c3ccccc3)c12 . Its growth was 81.8% (inactive)

Entry under test: c1ccc2c(c1)CCN(NCCN1CCCC1)C2 . Its growth was 91.5% (inactive)

Entry under test: Cc1cc(N2CCOCC2)nc(N(CCNc2ccnc3cc(Cl)ccc23)Cc2cccs2)n1 . Its growth was -39.4% (active)

Entry under test: CCCC(=O)OCC1OC(n2cnc3c(=S)nc(N)[nH]c32)C(OC(=O)CCC)C1OC(=O)CCC (stereo not given) . Its growth was 15% (inactive)

###

test system: SNB-19 CNS; assay: NCI-60 one-dose screen, 48 h (100 = growth as untreated, 0 = no growth, -100 = all killed); settings: 10 µM unless noted
Compounds without any hit were thinned out: in the full panel of roughly 83,000, 20% have a hit.
I'd appreciate it if you could supply growth values for the items below.
A number alone suffices; assume %.

Entry under test: CCCCCCCCCCCC[n+]1ccccc1 . Its growth was 8.57

Entry under test: CCN(CC)CCN1C(=O)c2cccc3c(-c4ccc5c(c4)ncn5C4CCCCC4)ccc(c23)C1=O . Its growth was 32.6

Entry under test: CCOC(=O)C1=C(C)NC(=O)NC1c1cc(=O)oc2ccc(C)cc12 (configuration not stated) . Its growth was 106

Entry under test: NC(=O)c1c(OCc2c(F)cc(Br)cc2F)nsc1NC(=O)NCCCCN1CCCC1 . Its growth was 5.06

Entry under test: CC12O[C@H](C[C@@H](OC(=O)CCC(=O)O)[C@H]1O)n1c3ccccc3c3c4c(c5c6ccccc6n2c5c31)C(=O)NC4=O . Its growth was 43.2

Entry under test: CN(C)C/C=C/C(=O)Nc1cc2c(Nc3ccc(F)c(Cl)c3)ncnc2cc1O[C@H]1CCOC1 . Its growth was 8.32

Entry under test: CN1CCC(CNc2ccc3ncc(-c4cccc(OC(F)(F)F)c4)n3n2)CC1 . Its growth was -48.6

Entry under test: COC(=O)N[C@@H](C)CNc1nccc(-c2cn(C(C)C)nc2-c2cc(Cl)cc(NS(C)(=O)=O)c2F)n1 . Its growth was 108

Entry under test: CCN(CC)C(=O)C[N+](C)(C)CCOC(c1ccccc1)c1ccccc1 . Its growth was 106

Entry under test: Oc1ccc(/C=N/Nc2nnc(N/N=C/c3ccc(O)cc3O)c3ccccc23)c(O)c1 . Its growth was -1.04

Entry under test: C/C(=C(/c1ccc(Cl)cc1)c1ccc(OCCN2CCCCC2)cc1)c1ccccc1 . Its growth was 86.7

Entry under test: CCN(CCN(C)C)C(=O)CNCc1cc(C(N)=O)ccn1 . Its growth was 104

Entry under test: CCN1CCN(Cc2ccc(NC(=O)Nc3nc(-c4cc(OC)c(OC)c(OC)c4)cs3)cc2C(F)(F)F)CC1 . Its growth was 33.7

Entry under test: COc1cccc(NC(=O)Nc2ccc(Nc3ncnc4sc5c(c34)CCN(C(=O)CCl)C5)cc2)c1 . Its growth was 102

Entry under test: N[C@@H]1CCCN(c2c(/C=C3\SC(=O)NC3=O)cccc2-c2ccccc2)C1 . Its growth was 1.97

Entry under test: CNC(=O)CN1CCC(Oc2cc3c(Nc4cccc(Cl)c4F)ncnc3cc2OC)CC1 . Its growth was 70.3

Entry under test: Nc1ncnc2c1ccn2-c1cccc(NC(=O)c2ccc(N3CCOCC3)c(C(F)(F)F)c2)c1 . Its growth was 95.7

Entry under test: COc1cnc2c(c1)C(=O)c1c-2n(CCCN2CCOCC2)c(=O)c2cc(Cl)ccc12 . Its growth was 28.6

Entry under test: Nc1ccc(S(=O)(=O)O)c2cc(S(=O)(=O)O)cc(O)c12 . Its growth was 105

Entry under test: C=CCN(/C=C1/C(=O)O[C@H](COC)[C@@]2(C)C1=C(O)C(=O)C1=C2[C@H](OC(C)=O)C[C@]2(C)C(=O)CC[C@@H]12)CC=C . Its growth was 26.2

Entry under test: O=C(Cn1cncn1)Nc1ccc(-c2nc3ccccc3s2)cc1 . Its growth was 93

Entry under test: CCN(CC)CCNC(=O)c1c(C)[nH]c(/C=C2\C(=O)Nc3ccc(F)cc32)c1C . Its growth was 9.51

###

system: MDA-MB-231 breast; experiment: NCI-60 one-dose screen, 48 h; conditions: 10 µM unless noted
Compounds without any hit were thinned out: in the full panel of roughly 83,000, 20% have a hit. Calls of active or inactive are those of the source. Rule for the calls: active = growth percent below 10; inactive = the rest.
Please reply with one of these outcomes: 1 (active), -1 (inactive)

input: Entry COc1ccc(C2CC(=O)c3c(O)c(OC)c(OC)c(OC)c3O2)cc1O (stereo not drawn) : call = ?
output: -1

input: Entry Cn1cc(-c2ccc(F)c(C(F)(F)F)c2)nc1C1CCN(c2ncnc3[nH]ncc23)CC1 : call = ?
output: -1

input: Entry CO[C@H]1C[C@@H]2CC[C@@H](C)[C@@](O)(O2)C(=O)C(=O)N2CCCC[C@H]2C(=O)O[C@H]([C@H](C)C[C@@H]2CC[C@@H](O)[C@H](OC)C2)CC(=O)[C@H](C)/C=C(\C)[C@@H](O)[C@@H](OC)C(=O)[C@H](C)C[C@H](C)\C=C/C=C/C=C/1C : call = ?
output: -1

input: Entry O=C1C=CC2(NN=C(c3ccccc3)N2c2ccc(Cl)cc2)c2cccc(O)c21 (stereo not drawn) : call = ?
output: -1

input: Entry CO[C@@H](C(=O)N1Cc2[nH]nc(NC(=O)c3ccc(N4CCN(C)CC4)cc3)c2C1)c1ccccc1 : call = ?
output: 1

input: Entry C=CC(=O)N1CCC[C@H](n2c(=O)n(-c3ccc(Oc4ccccc4)cc3)c3c(N)ncnc32)C1 : call = ?
output: -1

input: Entry Cc1cc2c(-c3nc4ccccn4c3NC3CCCCC3)c(O)c(O)cc2c(O)c1-c1c(C)cc2c(-c3nc4ccccn4c3NC3CCCCC3)c(O)c(O)cc2c1O : call = ?
output: -1

input: Entry c1cn2cc(-c3ccc4cn[nH]c4c3)nc(Nc3ccc(N4CCOCC4)cc3)c2n1 : call = ?
output: -1

input: Entry CCc1nc2cc(/C=C/C(=O)NO)ccc2c(=O)n1CCc1ccc(F)cc1 : call = ?
output: 1

input: Entry c1cc[n+](Cc2c3ccccc3cc3c2ccc2ccccc23)cc1 : call = ?
output: -1

input: Entry COc1cc(Nc2c(C#N)cnc3cc(OCCCN4CCN(C)CC4)c(OC)cc23)c(Cl)cc1Cl : call = ?
output: -1

input: Entry Cc1cc(Nc2cc(N3CCN(C)CC3)nc(/C=C/c3ccccc3)n2)n[nH]1 : call = ?
output: 1

input: Entry Cc1ccc(NC(=O)Nc2ccc(Nc3ncnc4sc5c(c34)CCOC5)cc2)cc1Cl : call = ?
output: -1
